Test system: PC26
assay explanation: qHTS profiling for inhibitors of Plasmodium falciparum proliferation (AID 504749); note: nearly all actives have a fitted effect of over 60% in size
condition: P. falciparum in erythrocytes, SYBR Green DNA, 72 h; series mostly up to 28.7 µM
Records with an inconclusive call do not appear. The source made the active and inactive calls. Calls come from the whole dose curve; as a rule, active = well fitted inhibition curve with a large enough effect; inconclusive = small, poorly fitted or top-dose-only effect; inactive = flat fitted curve, though single readings scatter. Peptide text beside a SMILES is read from it.
A correct response names exactly one class from YES = active, NO = inactive

### Prompt Assay outcome for O=C(O)CN(CCN(CC(=O)O)CC(=O)O)CC(=O)O : what was it?
### Response NO

### Prompt Assay outcome for CC(NNC(=O)c1ccccc1)c1ccccc1 (configuration not stated) : what was it?
### Response NO

### Prompt Assay outcome for O=S(=O)(O)c1ccc2c(N=Nc3ccc(S(=O)(=O)O)c4ccccc34)c(O)c(S(=O)(=O)O)cc2c1 : what was it?
### Response NO

### Prompt Assay outcome for C=CCSSSCC=C : what was it?
### Response NO

### Prompt Assay outcome for Cc1cc(C(=O)NNCc2ccccc2)no1 : what was it?
### Response NO

### Prompt Assay outcome for O=C1C(=O)c2ncccc2-c2cccnc21 : what was it?
### Response YES

### Prompt Assay outcome for CC(=O)N[C@@H](CC(=O)O)C(=O)N[C@@H](CCC(=O)O)C(=O)O (Ac-Asp-Glu-OH) : what was it?
### Response NO

### Prompt Assay outcome for CCOC(=O)C1=C(C)NC(C)=C(C(=O)OCC)C1c1ccccc1C=CC(=O)OC(C)(C)C : what was it?
### Response YES

### Prompt Assay outcome for CO[C@H]1C[C@@H]2CC[C@@H](C)[C@@](O)(O2)C(=O)C(=O)N2CCCC[C@H]2C(=O)O[C@H]([C@H](C)C[C@@H]2CC[C@@H](OCCO)[C@H](OC)C2)CC(=O)[C@H](C)/C=C(\C)[C@@H](O)[C@@H](OC)C(=O)[C@H](C)C[C@H](C)/C=C/C=C/C=C/1C : what was it?
### Response YES

### Prompt Assay outcome for CO[C@H](C(=O)[C@@H](O)[C@@H](C)O)C1Cc2cc3cc(O[C@H]4C[C@@H](O[C@H]5C[C@@H](O)[C@H](O)[C@@H](C)O5)[C@@H](O)[C@@H](C)O4)c(C)c(O)c3c(O)c2C(=O)[C@H]1O[C@H]1C[C@@H](O[C@H]2C[C@@H](O[C@H]3C[C@](C)(O)[C@H](O)[C@@H](C)O3)[C@H](O)[C@@H](C)O2)[C@H](O)[C@@H](C)O1 (some centres not stated) : what was it?
### Response YES

### Prompt Assay outcome for COC(F)(F)C(Cl)Cl : what was it?
### Response NO

### Prompt Assay outcome for CCCC(=O)Nc1ncnc2c1ncn2C1OC2COP(=O)(O)OC2C1OC(=O)CCC (configuration not stated) : what was it?
### Response NO

### Prompt Assay outcome for C[C@H]1C[C@H]2[C@@H]3CCC4=CC(=O)C=C[C@]4(C)[C@@]3(F)[C@@H](O)C[C@]2(C)[C@@]1(O)C(=O)CO : what was it?
### Response NO

### Prompt Assay outcome for CC(=O)Oc1cc(C)c(OC(C)=O)c2ccccc12 : what was it?
### Response YES

### Prompt Assay outcome for CCOc1ccc(N=Nc2ccc(N)cc2N)cc1 : what was it?
### Response NO

### Prompt Assay outcome for CCCCCCCC(=O)O : what was it?
### Response NO

### Prompt Assay outcome for CC(O)CO (configuration not stated) : what was it?
### Response NO

### Prompt Assay outcome for CCOC(C)=O : what was it?
### Response NO

### Prompt Assay outcome for CCN(CC)Cc1cc(Nc2ccnc3cc(Cl)ccc23)ccc1O : what was it?
### Response YES

### Prompt Assay outcome for CCCCCCCCCCCC[n+]1ccc2ccccc2c1 : what was it?
### Response YES

### Prompt Assay outcome for CC1(C)S[C@@H]2[C@H](NC(=O)[C@@H](NC(=O)N3CCNC3=O)c3ccccc3)C(=O)N2[C@H]1C(=O)O : what was it?
### Response NO

### Prompt Assay outcome for CCCCCCCCCCCCCC[n+]1ccc(C)cc1 : what was it?
### Response YES

### Prompt Assay outcome for CC(=O)Oc1c(C)cc(OCC(O)CNC(C)C)c(C)c1C (configuration not stated) : what was it?
### Response NO

### Prompt Assay outcome for CC(C)N=c1cc2n(-c3ccc(Cl)cc3)c3ccccc3nc-2cc1Nc1ccc(Cl)cc1 : what was it?
### Response NO

### Prompt Assay outcome for CCCCCCCCCCCCCCCC(=O)OCC(COC(=O)CCCCCCCCCCCCCCC)OC(=O)CCCCCCCCCCCCCCC : what was it?
### Response NO

### Prompt Assay outcome for C[C@@H]1CCC2[C@@H](C)[C@@H](O)O[C@@H]3O[C@@]4(C)CC[C@@H]1[C@@]23OO4 (some centres not stated) : what was it?
### Response YES

### Prompt Assay outcome for CC1(C)C(C=C(Cl)Cl)C1C(=O)OCc1cccc(Oc2ccccc2)c1 (configuration not stated) : what was it?
### Response NO

### Prompt Assay outcome for Cc1cn([C@H]2C[C@H](O)[C@@H](CO)O2)c(=O)[nH]c1=O : what was it?
### Response NO

### Prompt Assay outcome for Nc1c(N=Nc2ccc(-c3ccc(N=Nc4cc(S(=O)(=O)O)c5ccccc5c4N)cc3)cc2)cc(S(=O)(=O)O)c2ccccc12 : what was it?
### Response NO

### Prompt Assay outcome for Oc1cc(O)c2c(c1)OC(c1ccc(O)c(O)c1)C(O)C2 (configuration not stated) : what was it?
### Response NO

### Prompt Assay outcome for O=C(O)CCC(=O)C(=O)O : what was it?
### Response NO

### Prompt Assay outcome for C[C@]12O[C@H](C[C@]1(O)CO)n1c3ccccc3c3c4c(c5c6ccccc6n2c5c31)CNC4=O : what was it?
### Response YES
